// data source = patent US5250428A

Exercise: state measured Relative activity (%) for each of the compounds provided.
- Test system: L-gulono-gamma-lactone dehydrogenase (GLDH)
- EXPERIMENT_DESCRIPTION: Effect of metal ions on GLDH enzyme activity
- Type: biochemical, Gluconobacter oxydans DSM 4025
- RUN_PARAMETERS: metal 0.38 mM
One number for each entry, in %.

[Cl-].[Cl-].[Zn+2] = 88
[Ca+2].[Cl-].[Cl-] = 104
O.O.O.O.O.O.[Cl-].[Cl-].[Co+2] = 110
O.O.[Na+].[Na+].[O]=[Mo](=[O])([O-])[O-] = 96
O.O.O.O.O.O.O.O=S(=O)([O-])[O-].[Zn+2] = 88

Can you give me Relative activity (%) for all of these, one by one?
1. O=S(=O)([O-])[O-].[Cu+2]
2. O.O.[Cl][Cu][Cl]
3. O.O.O.O.O.O.O.O=S(=O)([O-])[O-].[Mg+2]
4. O.O.O.O.O.O=S(=O)([O-])[O-].[Cu+2]
5. O.O.O.O.O.O.[Cl-].[Cl-].[Mg+2]
6. O.O.O.O.O=[N+]([O-])[O-].O=[N+]([O-])[O-].[Ca+2]

Solution:
[24, 8, 96, 20, 96, 100]

====

- Tested on: L-gulono-gamma-lactone dehydrogenase (GLDH)
- EXPERIMENT_DESCRIPTION: Effect of inhibitors on GLDH enzyme activity
- Assay type: biochemical, Gluconobacter oxydans DSM 4025
- RUN_PARAMETERS: inhibitor 1.89 mM
Exercise: state measured Relative activity (%) for each of the molecules provided.
Numbers only, in %.

Can you give me Relative activity (%) for all of these, one by one?
1. [F-].[Na+] [Sodium fluoride]
2. O.O.O.O.O.O.O.O=[As]([O-])([O-])O.[Na+].[Na+]
3. CCN1C(=O)C=CC1=O [N-Ethyl-maleimide]
4. [N-]=[N+]=[N-] [Sodium azide]
5. O=C(O)c1cc[c]([Hg][Cl])cc1 [PCMB, p-chloro-mercuribenzoate]

Solution:
1. 114.3
2. 104.8
3. 100
4. 97.6
5. 102.4

====

Exercise: state measured Relative activity (%) for each of the molecules provided.
- Tested on: L-gulono-gamma-lactone dehydrogenase (GLDH)
- EXPERIMENT_DESCRIPTION: Effect of inhibitors on GLDH enzyme activity
- Assay type: biochemical, Gluconobacter oxydans DSM 4025
- RUN_PARAMETERS: inhibitor 0.96 mM
Give bare numbers, in %.

[N-]=[N+]=[N-] [Sodium azide] = 100

Can you give me Relative activity (%) for all of these, one by one?
1. [F-].[Na+] [Sodium fluoride]
2. O.O.O.O.O.O.O.O=[As]([O-])([O-])O.[Na+].[Na+]
3. O=C(O)c1cc[c]([Hg][Cl])cc1 [PCMB, p-chloro-mercuribenzoate]
4. CCN1C(=O)C=CC1=O [N-Ethyl-maleimide]

Solution:
1. 107.1
2. 95.2
3. 90.5
4. 95.2

====

- System: L-gulono-gamma-lactone dehydrogenase (GLDH)
- EXPERIMENT_DESCRIPTION: Substrate specificity of GLDH (DCIP reduction enzyme assay)
- Assay type: biochemical, Gluconobacter oxydans DSM 4025
- RUN_PARAMETERS: substrate 400 mM, 25° C., DCIP/PMS; L-gulono-gamma-lactone = 100
MEASURED_ENDPOINT: Relative activity (%)
Answers are plain numbers, in %.

Would you please look over these solved cases?
O=C[C@@H](O)[C@@H](O)[C@H](O)[C@H](O)CO = 7.23
O=C[C@@H](O)[C@@H](O)[C@H](O)[C@@H](O)CO = 0
O=C[C@H](O)[C@@H](O)[C@H](O)[C@H](O)C(=O)O = 0
O=C[C@H](O)[C@@H](O)[C@@H](O)[C@H](O)CO = 0
O=C1O[C@H]([C@@H](O)CO)[C@@H](O)[C@@H]1O = 0
O=C[C@H](O)[C@@H](O)[C@H](O)[C@H](O)CO = 23.4
O=C[C@H](O)[C@H]1OC(=O)[C@@H](O)[C@H]1O = 6.38
O=C[C@H](O)[C@@H](O)[C@H](O)CO = 110.6

Can you give me Relative activity (%) for all of these, one by one?
1. O=C1O[C@H](CO)[C@@H](O)[C@H](O)[C@H]1O
2. O=C1O[C@H]([C@@H](O)CO)[C@H](O)[C@@H]1O
3. O=C(O)[C@H](O)[C@@H](O)[C@H](O)[C@H](O)CO

Solution:
1: 0; 2: 100; 3: 0
